tested on: OVCAR-4; experiment: NCI tumour cell line growth inhibition, 48 h
Active and inactive are the calls of the source. Cut-off read from the data, not from the text of the source: active = GI50 up to about 1.1 µM and inactive = higher.
metric: GI50

- molecule: "C=CCN(C(=O)OC(C)(C)C)C1=CC2C(C)=CN(S(=O)(=O)c3ccccc3)C2C(OCc2ccccc2)=C1 (stereo unspecified)"
  assaySystem: "OVCAR-4"
  measuredValue: "> 100 µM (inactive)"
- molecule: "Cc1cccc2nc3c(=O)[nH]c(=O)nc-3n(C)c12"
  assaySystem: "OVCAR-4"
  measuredValue: "45.5 µM (inactive)"
- molecule: "COc1cc(C2C(C(=O)Nc3ccccc3C)=C(C)NC(C)=C2C(=O)Nc2ccccc2C)ccc1O"
  assaySystem: "OVCAR-4"
  measuredValue: "> 100 µM (inactive)"
- molecule: "COC1=CC(=O)O/C1=C(\\OC)C1OC1c1ccccc1 (stereo unspecified)"
  assaySystem: "OVCAR-4"
  measuredValue: "> 100 µM (inactive)"
- molecule: "CC(C)(C)OC(=O)NC(Cc1ccccc1)C(=O)N[C@H]1c2ccsc2/C(=N/O)[C@H]1O (stereo partly specified)"
  assaySystem: "OVCAR-4"
  measuredValue: "35.2 µM (inactive)"

Problem: OVCAR-4 / GI50 / COc1cc(NC(C)=O)ccc1C(=O)NN1C(=O)C(Cl)C1c1ccco1 (stereo unspecified) : value?
Solution: > 100 µM (inactive)

Problem: Param readout= GI50; system= OVCAR-4; entry= CC(=O)OC1CC2C(=O)CC1(C)C2(C)C (stereo unspecified) ; returns value.
Solution: > 100 µM (inactive)

Problem: Request - read-out GI50 | tested on OVCAR-4 | molecule Cc1ccc(S(=O)(=O)NC(=O)C2=C(c3ccccc3)[N-]N(C)c3nc4cccc[n+]4nc32)cc1
Solution: > 100 µM (inactive)

Problem: Missing value: GI50, OVCAR-4, entry Cc1c(C(=O)/C=C/c2ccccc2)[n+]([O-])c2ccccc2[n+]1[O-] . Fill in?
Solution: 15 µM (inactive)

Problem: Form field - read-out: GI50; system: OVCAR-4; submitted item: C=CCN1C(N)=C(C#N)C(C#N)(C#N)C1CCC (stereo unspecified)
Solution: > 100 µM (inactive)

Problem: Any idea what GI50 came out for O=C(CN1CCCCC1)N1CCc2c([nH]c3ccccc23)C1c1cccnc1 (stereo unspecified) on OVCAR-4?
Solution: > 100 µM (inactive)

Problem: // fetch OVCAR-4 GI50 for Cc1ccc2nc(NC(=O)/C(Cc3nc4ccc(Cl)cc4nc3O)=N\NC(C)(C)C)sc2c1
Solution: 12.5 µM (inactive)

Problem: Under OVCAR-4: GI50 value of O=c1cnnc2sc(=S)[nH]n12 ?
Solution: 16.7 µM (inactive)

Problem: What reported GI50 corresponds to COc1ccccc1NC(=O)C1=C(C)NC(C)=C(C(=O)Nc2ccccc2OC)C1c1ccccc1F on OVCAR-4?
Solution: > 100 µM (inactive)

Problem: Test system OVCAR-4; read-out GI50; what value for O=C1N/C(=N/N=C/C(O)C(O)C(O)C(O)CO)N/C1=C\c1cccs1 (stereo unspecified) ?
Solution: > 100 µM (inactive)

Problem: Identify the measured GI50 of O=C1/C(=C/c2ccc(Cl)cc2)N=C(c2ccccc2)N1c1nc2ccc(Sc3ccccc3)cc2[nH]1 for OVCAR-4.
Solution: 34.7 µM (inactive)

Problem: Tell me reported GI50 for O=C1OC(=O)c2c1cc1cc3c(cc1c2-c1ccc2c(c1)OCO2)OCO3 , tested with OVCAR-4.
Solution: > 100 µM (inactive)

Problem: Lab note: need GI50 for COC(=O)C1=C(C)N(NC(N)=O)C(C)(O)C12CCOC2=O (stereo unspecified) on OVCAR-4, anyone have it?
Solution: > 100 µM (inactive)

Problem: Query for OVCAR-4: what GI50 does the record show for O=P1(N(CCCl)CCCl)Oc2ccc(Cl)cc2C(C(Cl)(Cl)Cl)c2cc(Cl)ccc2O1 (stereo unspecified) ?
Solution: 20.7 µM (inactive)

Problem: Query for OVCAR-4: what GI50 does the record show for Cc1ccc(S(=O)(=O)OCC(=O)O)cc1 ?
Solution: > 100 µM (inactive)

Problem: Please provide the recorded GI50 for CC1(C)CCC2=C(O1)/C(=N\Nc1ccccc1)c1ccccc1C2=O , tested on OVCAR-4.
Solution: 31.2 µM (inactive)
